Hey, just so you know, these numbers are from ChEMBL document CHEMBL1136424.

biological target: Peroxisome proliferator-activated receptor alpha (Homo sapiens); experiment: Maximum transcriptional activation of human PPAR alpha receptor
Sequence (Q07869 whole entry): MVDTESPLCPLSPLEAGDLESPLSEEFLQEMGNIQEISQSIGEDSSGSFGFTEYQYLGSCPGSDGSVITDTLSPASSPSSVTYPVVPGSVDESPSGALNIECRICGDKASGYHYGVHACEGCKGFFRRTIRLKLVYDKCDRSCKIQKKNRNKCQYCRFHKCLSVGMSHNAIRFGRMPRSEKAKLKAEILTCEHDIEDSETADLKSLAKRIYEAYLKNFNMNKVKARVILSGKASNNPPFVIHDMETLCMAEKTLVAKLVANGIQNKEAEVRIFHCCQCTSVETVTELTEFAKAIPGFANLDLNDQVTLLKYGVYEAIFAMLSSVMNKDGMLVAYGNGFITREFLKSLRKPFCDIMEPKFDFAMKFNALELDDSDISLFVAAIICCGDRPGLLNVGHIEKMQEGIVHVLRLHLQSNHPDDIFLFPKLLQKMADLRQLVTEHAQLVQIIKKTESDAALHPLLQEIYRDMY

| record smiles | EC50 / µM |
| --- | --- |
| Cc1cc(OCc2sc(-c3ccc(C(F)(F)F)cc3)nc2C)ccc1/C=C/C(=O)O | 3.2 |
| Cc1cc(SCc2oc(-c3ccc(C(F)(F)F)cc3)nc2C)ccc1OCC(=O)O | 2.5 |
| Cc1cc(OCc2sc(-c3ccc(C(F)(F)F)cc3)nc2C)ccc1CCC(=O)O | 1.7 |
| Cc1nc(-c2ccc(C(F)(F)F)cc2)sc1COc1ccc(CC(=O)O)cc1 | 6.9 |
| Cc1cc(SCc2sc(-c3ccc(C(F)(F)F)c(F)c3)nc2C)ccc1OCC(=O)O | 1.1 |
| Cc1nc(-c2ccc(C(F)(F)F)cc2)oc1COc1ccc(CCC(=O)O)cc1 | 0.28 |
| Cc1nc(-c2ccc(C(F)(F)F)cc2)sc1COc1ccc(CCC(=O)O)cc1 | 3 |
| Cc1cc(OCc2oc(-c3ccc(C(F)(F)F)cc3)nc2C)ccc1OCC(=O)O | 3.2 |
